# test system: UniProt:L8GT25
# Sequence (L8GT25 entry or part of it): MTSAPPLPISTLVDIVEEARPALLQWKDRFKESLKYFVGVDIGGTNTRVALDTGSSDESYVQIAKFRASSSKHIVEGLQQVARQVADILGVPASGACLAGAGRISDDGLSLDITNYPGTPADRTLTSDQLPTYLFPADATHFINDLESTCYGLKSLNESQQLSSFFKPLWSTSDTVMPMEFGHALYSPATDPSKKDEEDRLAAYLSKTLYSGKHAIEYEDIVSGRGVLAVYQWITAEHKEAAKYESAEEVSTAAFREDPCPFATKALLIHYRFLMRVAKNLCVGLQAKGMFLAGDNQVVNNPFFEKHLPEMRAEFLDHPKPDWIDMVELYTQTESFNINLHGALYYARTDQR
# run description: Glucokinase assay (G6PDH-coupled reaction, absorbance at 340 nm), AcGlck
# Assay type: biochemical
# measurement parameters: 10 nM enzyme, 15 min preincubation, pH 8, triplicate
Criterion: IC50 strictly less than 2 µM. Met: Y. Not met: N.

# compound, assigned label
data = [
    ("O=C(NS(=O)(=O)c1ccc(-c2ccc(Oc3ccccc3)cc2)cc1)c1ccc2c(ccn2Cc2ccc(C(F)(F)F)cc2C(F)(F)F)c1 [SZ35TA30]", "Y"),
    ("COc1ccccc1-c1ccc(C(=O)NS(=O)(=O)c2ccc(-c3cc4ccccc4s3)cc2)cc1 [SZ37TA21]", "N"),
    ("O=C(NS(=O)(=O)c1ccc(-c2ccc(C(F)(F)F)cc2)cc1)c1ccc2oc(-c3ccccc3)cc2c1 [SZ16TA41]", "N"),
    ("O=C(NS(=O)(=O)CCN(CSCc1ccccc1)Cc1ccc2c(c1)OCO2)c1ccc2c(ccn2Cc2ccc(C(F)(F)F)cc2C(F)(F)F)c1 [SZ28TA30]", "N"),
    ("O=C(NS(=O)(=O)c1ccc(-c2ccc(Oc3ccccc3)cc2)cc1)c1ccc2oc(-c3ccccc3)cc2c1 [SZ35TA41]", "Y"),
    ("Cn1cc(C(=O)NS(=O)(=O)CCN(CSCc2ccccc2)Cc2ccc3c(c2)OCO3)c2cc(-c3ccc(S(C)(=O)=O)cc3)ccc21 [SZ28TA26]", "N"),
    ("CCOc1ccc(-c2ccc3c(c2)c(C(=O)NS(=O)(=O)c2ccc(-c4ccc(Oc5ccccc5)cc4)cc2)cn3C)cc1F [SZ35TA23]", "N"),
]

###

Reported values of pIC50 for individual entries
Target protein (sequence): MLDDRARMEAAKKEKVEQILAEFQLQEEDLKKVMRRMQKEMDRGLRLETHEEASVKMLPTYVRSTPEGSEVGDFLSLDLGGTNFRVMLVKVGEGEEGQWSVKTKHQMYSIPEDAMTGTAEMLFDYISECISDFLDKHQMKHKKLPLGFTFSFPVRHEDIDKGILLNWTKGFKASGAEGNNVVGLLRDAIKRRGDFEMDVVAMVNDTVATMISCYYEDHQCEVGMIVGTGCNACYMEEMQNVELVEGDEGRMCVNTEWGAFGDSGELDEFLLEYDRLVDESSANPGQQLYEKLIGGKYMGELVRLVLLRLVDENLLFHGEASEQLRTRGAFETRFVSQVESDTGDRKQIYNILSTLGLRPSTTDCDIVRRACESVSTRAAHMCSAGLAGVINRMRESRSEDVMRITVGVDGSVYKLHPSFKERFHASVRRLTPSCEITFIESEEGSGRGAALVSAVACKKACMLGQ
pIC50: −log10 of the molar value.

# input smiles, pIC50
records = [
    ("COc1cc(OC)cc(C(=O)NS(=O)(=O)c2ccc(CN3CCN(c4ccccc4)CC3)cc2)c1", "< 5.00"),
    ("COc1ccccc1-c1ccc(C(=O)NS(=O)(=O)c2ccc(-c3cc4ccccc4s3)cc2)cc1", "< 5.00"),
    ("O=C(NS(=O)(=O)CCN(CSCc1ccccc1)Cc1ccc2c(c1)OCO2)c1ccc2oc(-c3ccccc3)cc2c1", "< 5.00"),
    ("Cn1cc(C(=O)c2cccs2)c2cc(C(=O)NS(=O)(=O)c3ccc(-c4ccc5c(c4)OCCO5)cc3)ccc21", 4.97),
    ("O=C(NS(=O)(=O)c1ccc(-c2ccc3c(c2)OCCO3)cc1)c1ccc2c(ccn2Cc2ccc(C(F)(F)F)cc2C(F)(F)F)c1", "< 5.00"),
]

From: paper PMC10644346
